# Study target: T1, human HER3-ECD-His (human, UniProt P21860 20-643)
# T1 construct: extracellular domain; Fusion protein of the extracellular domain of human HER3 and a His tag; also called hHER3-ECD-His; human HER3 extracellular domain protein; not shown: His tag
# Protocol description: Octet (BLI)
Readout kind: koff (s⁻¹)
State the answer as a number, implicitly in s⁻¹.

>>> assay_value("cHE2-G1W (antibody, human IgG1, V domains shown, also called chimeric HE2 antibody; not shown: human IgG1 heavy chain constant region, GenBank AXN93653.1; human kappa light chain constant region, GenBank AWK57456.1) VH: EVKLQESGPGLVKPSQSLSLTCSVTGYSITSGYYWNWIRQFPGNKLEWMGYISYDGSNNYNPSLKNRISITRDTSKNQFFLKLNSVTTEDTATYYCARMDWDGDAMDYWGQGTSVTVSS VL: DIVLTQSPASLAVSLGQRATISCRASESVDNYGISLMHWYQQKPGQPPKLLIYRASNLESGIPARFSGSGSRTDFTLTINPVETDDVATYYCQQSNKDPPTFGAGTKLELKR")
0.00308

Here is another binder to look at.
I have this binder here, cHE6-G1W (antibody, human IgG1, V domains shown, also called chimeric HE6 antibody; not shown: human IgG1 heavy chain constant region, GenBank AXN93653.1; human kappa light chain constant region, GenBank AWK57456.1) VH: EVQLQQSGPDLVKPGTSVKMSCKASGYTFTDYYMHWVRQSHGKSLEWIGYINPNNGDAIYNQKFKGKATLTVNKSSTTAYMALRSLTSEDSAVYFCATYDYGGDFYFDVWGTGTTVTVSS VL: DIELTQSPALMSASPGEKVTMTCSASSSVSYMYWYQQKPRSSPKPWIYLTSNLASGVPARFSGSGSGTSYSLTISSMEAEDAATYYCQQWSRNPLTFGAGTKLELKR , and I need its recorded koff.
5.11e-07

Origin of values: patent EP4725966A1
